- Organism: Rattus norvegicus
- testDetails: Open TG-GATES - Regimen: Daily Repeat
- Type: toxicity, organism-based, Sprague-Dawley
- Parameters: regimen Daily Repeat, gender Male, age 6 weeks
- testConditions: in vivo, po, 0 mg/kg, […], tissue Plasma, route gavage, dose level Control, time 14 day

>  <compound>
Cn1c(=O)c2[nH]cnc2n(C)c1=O.O

>  <Na, meq/L>
142

$$$$
>  <compound>
C[C@H](CS)C(=O)N1CCC[C@H]1C(=O)O

>  <Na, meq/L>
139.4

$$$$
>  <compound>
Clc1ccccc1CN1CCc2sccc2C1

>  <Na, meq/L>
142

$$$$
>  <compound>
CSc1ccc2c(c1)N(CCC1CCCCN1C)c1ccccc1S2 (stereo not given)

>  <Na, meq/L>
139.8

$$$$
>  <compound>
CO[C@H]1/C=C/O[C@@]2(C)Oc3c(C)c(O)c4c(O)c(c(/C=N/N5CCN(C)CC5)c(O)c4c3C2=O)NC(=O)/C(C)=C\C=C\[C@H](C)[C@H](O)[C@@H](C)[C@@H](O)[C@@H](C)[C@H](OC(C)=O)[C@@H]1C

>  <Na, meq/L>
139.6

$$$$
>  <compound>
CC(=O)Oc1ccccc1C(=O)O

>  <Na, meq/L>
141

$$$$
>  <compound>
O=C(O)c1cc(/N=N/c2ccc(S(=O)(=O)Nc3ccccn3)cc2)ccc1O

>  <Na, meq/L>
140.4

$$$$
>  <compound>
CN(C)CCC=C1c2ccccc2CCc2ccccc21

>  <Na, meq/L>
142.4

$$$$
>  <compound>
NC(=O)N1c2ccccc2C=Cc2ccccc21 [CARBAMAZEPINE]

>  <Na, meq/L>
141.6

$$$$
>  <compound>
COc1ccc2c(c1)c(CC(=O)O)c(C)n2C(=O)c1ccc(Cl)cc1

>  <Na, meq/L>
138.2

$$$$
>  <compound>
CCCC(CCC)C(=O)O

>  <Na, meq/L>
140.6

$$$$
>  <compound>
NC(=O)N/N=C/c1ccc([N+](=O)[O-])o1

>  <Na, meq/L>
142.8

$$$$
>  <compound>
COc1ccc(Cc2nccc3cc(OC)c(OC)cc23)cc1OC

>  <Na, meq/L>
142.8

$$$$
>  <compound>
CCc1cc(C(N)=S)ccn1 [ETHIONAMIDE]

>  <Na, meq/L>
142

$$$$
>  <compound>
O=C(O)c1cn(C2CC2)c2cc(N3CCNCC3)c(F)cc2c1=O

>  <Na, meq/L>
138.8

$$$$
